Test method notes: PhX1 concentrations in murine plasma, epithelial lining fluid and alveolar macrophages (BAL procedure, LC-MS/MS)
Conditions used: male, C57BL/6, mouse, in vivo, po, 10 mg/kg, Cmax in epithelial lining fluid cells (alveolar macrophages), mice, 10 mg/kg oral, ELF cells
Assay readout: Cmax (ng/mL)
Answers are plain numbers, in ng/mL.

Please look up its Cmax: CCN(CC)c1ccc2nc3c4ccccc4/c(=N\c4ccccc4)cc-3oc2c1
895

* * *

Test method notes: PhX1 concentrations in murine plasma, epithelial lining fluid and alveolar macrophages (BAL procedure, LC-MS/MS)
Conditions used: male, C57BL/6, mouse, in vivo, po, 10 mg/kg, AUC in epithelial lining fluid cells (alveolar macrophages), mice, 10 mg/kg oral, ELF cells, 24 h
Assay readout: AUC (ng·h/mL)
Give bare numbers, in ng·h/mL.

Which value of AUC has been reported for CCN(CC)c1ccc2nc3c4ccccc4/c(=N\c4ccccc4)cc-3oc2c1 in the records?
5020

* * *

System: M. tuberculosis H37Rv
Test method notes: Intracellular efficacy (CFU plating) in M. tuberculosis-infected THP-1 cells
Type: cell-based, Mycobacterium tuberculosis
Conditions used: M. tuberculosis H37Rv-infected THP-1 cells, 20× MIC, 96-h assay; signed value
Assay readout: change in bacterial count compared to starting bacterial count (log10CFU/ml)
Answers are plain numbers, in log10CFU/ml.

Worked cases, change in bacterial count compared to starting bacterial count given:
[[record]]
smiles_notation = "CCN(CC)c1ccc2nc3c4ccccc4/c(=N\\c4ccccc4)cc-3oc2c1"
reported = "−0.8"

[[record]]
smiles_notation = "COc1c(N2C[C@@H]3CCCN[C@@H]3C2)c(F)cc2c(=O)c(C(=O)O)cn(C3CC3)c12"
reported = "−0.5"

[[record]]
smiles_notation = "CO[C@H]1/C=C/O[C@@]2(C)Oc3c(C)c(O)c4c(O)c(c(/C=N/N5CCN(C)CC5)c(O)c4c3C2=O)NC(=O)/C(C)=C\\C=C\\[C@H](C)[C@H](O)[C@@H](C)[C@@H](O)[C@@H](C)[C@H](OC(C)=O)[C@@H]1C"
reported = "−1.5"


Given the entry COc1nc2ccc(Br)cc2cc1[C@@H](c1ccccc1)[C@@](O)(CCN(C)C)c1cccc2ccccc12 , report its measured change in bacterial count compared to starting bacterial count.
−1.5

* * *

Kindly supply the reported Equilibrium level reached (intracellular concentration) values for the records listed here.
System: THP-1 cells
Conditions used: human, 48 h, 5 μg/ml
Give bare numbers, in ng/mL.

[[record]]
compound = "CCCCCCCCCCOc1cc2c(=O)c(C(=O)NCCOCCO)cn(CC)c2cc1OCC [RMB041]"
reported = 953.5

[[record]]
compound = "CC(=O)NC[C@H]1CN(c2ccc(N3CCOCC3)c(F)c2)C(=O)O1 [linezolid]"
reported = 770

[[record]]
compound = "CC(C)=CCC/C(C)=C/CN1CCN([C@@H]2O[C@@H]3O[C@@]4(C)CC[C@H]5[C@H](C)CC[C@@H]([C@H]2C)[C@@]35OO4)CC1 [WHN296]"
reported = 613.5


Okay, next one:
What measured Equilibrium level reached (intracellular concentration) is associated with C[C@H]1COc2c(N3CCN(C)CC3)c(F)cc3c(=O)c(C(=O)O)cn1c23 [Levofloxacin, levofloxacin] on THP-1 cells?
860

* * *

Test method notes: in vitro
Conditions used: human
Assay readout: viability at 48 h, 5 μg/ml (%)
Answers are plain numbers, in %.

[[record]]
compound = "CC(C)=CCC/C(C)=C/CN1CCN([C@@H]2O[C@@H]3O[C@@]4(C)CC[C@H]5[C@H](C)CC[C@@H]([C@H]2C)[C@@]35OO4)CC1 [WHN296]"
reported = 98

[[record]]
compound = "CC(=O)NC[C@H]1CN(c2ccc(N3CCOCC3)c(F)c2)C(=O)O1 [linezolid]"
reported = 92

[[record]]
compound = "COc1nc2ccc(Br)cc2cc1[C@@H](c1ccccc1)[C@@](O)(CCN(C)C)c1cccc2ccccc12 [bedaquiline]"
reported = 93


Now consider a different compound.
State the recorded viability at 48 h, 5 μg/ml for this entry: CO[C@H]1/C=C/O[C@@]2(C)Oc3c(C)c(O)c4c(O)c(c(/C=N/N5CCN(C)CC5)c(O)c4c3C2=O)NC(=O)/C(C)=C\C=C\[C@H](C)[C@H](O)[C@@H](C)[C@@H](O)[C@@H](C)[C@H](OC(C)=O)[C@@H]1C [rifampin]
89

Value source: paper PMC8557888
